Target: E3 ubiquitin-protein ligase XIAP (Homo sapiens)
Assay: XIAP binders, primary screen, biophysical, small-molecule microarray, fluorescence 635 nm (AID 1181);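 further: score merges 667 nm emission and signal to noise over triplicate slides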
Conditions: small-molecule microarray binding, higher = more signal
Quantity name: composite z-score

Look at this compound and give its reported composite z-score. `CCOC(=O)[C@H]1C/C=C/C[C@H](C(=O)OCC)C(=O)O[C@H]2[C@@H](OC)O[C@H](CO)[C@@H](OC(=O)Nc3ccc(Br)cc3)[C@@H]2OC1=O`
0.0223

Do the same for `O=C1O[C@H](c2ccccc2)[C@H](c2ccccc2)N2[C@H]1[C@@H](C(=O)Nc1nc3ccccc3s1)[C@]1(C(=O)Nc3ccc(C#CC4=CCCCC4)cc31)[C@H]2c1ccccc1OCCO` please
0.0705

Do the same for `COc1cc2c(cc1OC)CN(C(=O)[C@H]1[C@@H]3C(=O)O[C@@H](c4ccccc4)[C@@H](c4ccccc4)N3[C@@H](c3ccc(O)cc3)[C@]13C(=O)Nc1ccc(C#CC4(O)CCCCCC4)cc13)CC2` please
0.364

Do the same for `CCC#CCN(Cc1ccccc1Br)[C@H](/C=C/c1ccccc1)[C@@H](O)Cc1ccccc1` please
0.0101

Do the same for `C=CC[C@@]1(C(=O)N2CCOCC2)N=C(c2ccc(OCCCO)cc2)O[C@@H]1c1ccccc1` please
-0.167

Do the same for C[C@H]1NC(=O)[C@@H](C)NC(=O)[C@@]23C(=O)N[C@@H](Cc4ccccc4)C2[C@H](C)[C@@]2(C)O[C@H]2C3/C=C/C/C=C\CNC1=O (stereo partly specified) please
-0.198

###

Tested on: Noggin (protein binding on small-molecule microarray)
Assay: Noggin binders on small-molecule microarray, primary screen, biochemical, 635/667 nm fluorescence (AID 1095);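 further: score merges 667 nm feature fluorescence with signal to noise over triplicate slides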
Conditions: 635 nm fluorescence, higher = more signal
Bucketed by reported composite z-score, buckets being low interval (below 0.2), middle interval (0.2 to below 1), high interval (1 or more)

Into which bin does this molecule go? `C[C@@H]1CC[C@H]2C(=O)N3[C@@H](CC[C@@H](C)[C@@H]3c3cccc(N4CCOCC4)c3)C(=O)N2[C@H]1c1cccc(N2CCOCC2)c1`
middle interval

Do the same for `C=C(CCCC)/C(=C/C[C@@H](OC(=O)c1ccncc1)c1cccc(OCCO)c1)c1cc(C(=O)OC)ccc1OC` please
high interval

Do the same for `COCCOC(=O)N1C(=O)[C@@]2(c3cc(C#CCNC(N)=O)ccc31)[C@H](C(=O)N1CCCCCCC1)[C@H]1C(=O)O[C@H](c3ccccc3)[C@H](c3ccccc3)N1[C@@H]2c1ccccc1OCCO` please
middle interval

Do the same for `Cc1ccc(S[C@]2(C(=O)NCCCN(C)C)CC(=O)N(C3CCCCC3)[C@@H]2c2ccc(CO)cc2I)cc1` please
low interval

Do the same for `O=C(NCc1ccccc1)c1ccc(Br)cc1[N+](=O)[O-]` please
low interval

Do the same for `O=C1c2ccccc2[C@](Cc2ccccc2I)(C(=O)NCC(F)(F)F)[C@H](c2ccc(CO)cc2)N1Cc1ccccc1C(F)(F)F` please
low interval

Do the same for `O=C1c2ccccc2[C@](Cc2ccccc2I)(C(=O)O)[C@H](c2ccc(CO)cc2)N1C1CCCCC1` please
middle interval

Do the same for `CCC#CCN(Cc1ccccc1Br)[C@H](/C=C/c1ccccc1)[C@@H](O)Cc1ccccc1` please
low interval

Do the same for `CO[C@H]1COC(=O)CC=C[C@H](C)COC(=O)[C@@H](OCc2ccccc2)C=C[C@@H]1C` please
high interval

Do the same for `COc1cc2c(cc1OC)CN(C(=O)[C@H]1[C@@H]3C(=O)O[C@@H](c4ccccc4)[C@@H](c4ccccc4)N3[C@@H](c3ccc(O)cc3)[C@]13C(=O)Nc1ccc(C#CC4(O)CCCCCC4)cc13)CC2` please
high interval

Do the same for `COc1cc(CO)cc(I)c1O[C@H]1C=C(C(=O)NCCO)C[C@@H](NCCc2c[nH]c3ccccc23)[C@@H]1O` please
middle interval

Do the same for `C#CCCCON=C1C[C@@H](O)[C@@H](O)[C@@H]2[C@@H]3C(=O)N(Cc4ccc5c(c4)OCO5)C(=O)[C@@H]3CC[C@H]12` please
high interval

Do the same for `COC(=O)[C@H]1[C@@H]2COc3ccccc3[C@H]2N[C@H]1C(=O)OC` please
middle interval

Do the same for `CCN1C(C)=C(C(=O)OC)[C@@H](c2ccccc2)N2C(=O)[C@](O)(C(=O)OC)[C@@H](c3ccccc3)C(C(C)=O)=C12` please
middle interval

Do the same for `C=C(CCCC)/C(=C/C[C@H](OC(=O)c1ccncc1)c1cccc(OCCO)c1)c1cc(C(=O)OC)ccc1OC` please
high interval
